assay: qHTS Assay for Lipid Storage Modulators in Drosophila S3 Cells; conditions: BODIPY lipid droplet fluorescence, 18-24 h, cells fed with added oleic acid; series mostly up to 46.1 µM
Screen size: about 320,000 compounds; about 2,100 (0.66%) were called active. Inconclusive results (about 53%) are left out. Calls follow the shape of the dose curve; as a rule, active = well fitted inhibition curve with a large enough effect in the signal ratio, with a control signal flat (not every such curve was filed as active); inconclusive = small, poorly fitted or top-dose-only effect, or effect the other way, or a change in a side signal; inactive = flat fitted curve, though single readings scatter; the % refers to the signal ratio. Only a selection was taken, and actives are over-represented in it overall.
A correct response names exactly one class from active, inactive

# count of solved cases: 2
C=CCn1c(SC(F)F)nc2scc(-c3ccco3)c2c1=O: active
COc1ccc(NC(=O)CC2C(=O)NC3CCCCC3N2C(=O)c2ccc(F)cc2)cc1 (stereo unspecified): inactive

stdin: For `C=CCn1c(=S)[nH]c2scc(-c3ccco3)c2c1=O` , what call appears in the results of this test?
stdout: inactive

stdin: For `COc1cccc(-c2nc(-c3ccccn3)no2)c1` , what call appears in the results of this test?
stdout: inactive

stdin: For O=C(CC1C(=O)NC2CCCCC2N1C(=O)c1ccc(F)cc1)Nc1ccccc1 (stereo unspecified) , what call appears in the results of this test?
stdout: active

stdin: For `Cc1cc(C)cc(-n2c(C)cc(/C=N/NC(=O)c3ccncc3)c2C)c1` , what call appears in the results of this test?
stdout: inactive
